- Target: CSTF2T (UniProt Q9H0L4)
- Sequence: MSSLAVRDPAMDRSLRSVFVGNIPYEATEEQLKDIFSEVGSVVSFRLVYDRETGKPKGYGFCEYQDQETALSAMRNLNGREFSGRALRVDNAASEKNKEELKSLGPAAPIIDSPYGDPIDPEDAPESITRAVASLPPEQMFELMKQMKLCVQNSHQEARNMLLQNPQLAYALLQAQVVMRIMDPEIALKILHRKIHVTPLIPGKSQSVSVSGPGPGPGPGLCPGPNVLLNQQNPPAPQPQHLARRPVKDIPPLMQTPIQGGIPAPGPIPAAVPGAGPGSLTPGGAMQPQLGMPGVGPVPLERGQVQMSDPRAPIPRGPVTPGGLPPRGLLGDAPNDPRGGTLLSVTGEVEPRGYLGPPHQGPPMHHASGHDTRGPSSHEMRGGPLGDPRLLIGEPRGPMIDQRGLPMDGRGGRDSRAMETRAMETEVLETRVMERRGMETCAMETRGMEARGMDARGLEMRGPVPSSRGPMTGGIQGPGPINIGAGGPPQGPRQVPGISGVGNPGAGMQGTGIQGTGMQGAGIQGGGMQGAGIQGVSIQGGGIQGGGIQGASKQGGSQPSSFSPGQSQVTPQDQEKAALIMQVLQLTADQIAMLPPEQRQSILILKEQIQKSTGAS
- Test Method Notes: Kd (EC50 corrected by depletion factor)
Assay Readout: pKd
Friendly reminder that pKd comes from taking -log10 of the concentration in mol/L.

## Task Using CSTF2T (UniProt Q9H0L4) as the test system, report measured pKd of UAUUUAU .
## Result 6.59
